Where do the numbers come from? From a melting point compilation (Tetko et al.; mined from patent text by program, amines drawn as free bases though some values may be those of a salt).

Let's look at some molecules and their measured melting point.

Previously resolved entries follow.
CC1(C)CCc2ccc(OCCCCN3CCN(c4cccc(Cl)c4Cl)CC3)cc2NC1=O = 110 to 112 °C
CCOC(=O)c1c(N2CCN(C(=O)c3cccs3)CC2)c2cccnc2n(Cc2ccc(OC(C)=O)cc2)c1=O = 123 °C

Entry C=Cc1c(C)c(NC(=O)CC(C)(C)C)c(C)c2c1OCC2c1ccc(C(C)C)cc1 (centres undefined) : reported melting point = ?
171 to 172 °C

What value of melting point has been reported for the following molecule? Cc1cccc(C(N)=O)c1Nc1nc(Nc2ccc3c(c2)C(C)(C)CCC(=O)N3)ncc1Cl
220 to 222 °C
